Test system: human SMN2-gene
ASSAY TEXT: Full-length SMN2 transcript qPCR in tissues of adult SMA mice after intravenous peptide-PMO conjugate
Assay type: in vivo
CONDITION DETAILS: adult SMA mice; 2x15 mg/kg IV approx. 48 hours apart; tissue 7 days post final administration; normalised to saline treated controls; Central Nervous System
The label depends only on full-length SMN2 transcripts, mean expression level, Brainstem: Satisfied if it is at least 1, Not satisfied if it is smaller.

1) Ac-RXRRBRR FS*RBRXR-B [Peptide 17] : Satisfied
2) Ac-RXRRBRRQFLRBRXR-B [Peptide 5] : Satisfied
3) Ac-RXRRBRFQILYRBRXR-B [Peptide 7] : Satisfied
4) Ac-RXRRBRRFQILYRBRXR-B [Peptide 3] : Not satisfied

###

System: human SMN2-gene
ASSAY TEXT: Full-length SMN2 transcript qPCR in tissues of adult SMA mice after intravenous peptide-PMO conjugate
Assay type: in vivo
CONDITION DETAILS: adult SMA mice; 2x15 mg/kg IV approx. 48 hours apart; tissue 7 days post final administration; normalised to saline treated controls; spinal cord
Marks after values point to notes of the source that are not given here.
MEASURED QUANTITY: full-length SMN2 transcripts, mean expression level, Cervical

1) Ac-RXRRBRR FS*RBRXR-B [Peptide 17] : 1.41*
2) Ac-RXRRBRRXRQFLRXRBRXR-B [Peptide 2] : 1.78**
3) Ac-RXRRBRFQILYRBRXR-B [Peptide 7] : 1.26
4) Ac-RXRRBRRFLRBRXR-B [Peptide 6] : 0.88**
5) Ac-RXRRBRRXRYQFLIRXRBRXR-B [Peptide 1] : 1.50***
6) Ac-RXRRBRRXR S*FLRXRBRXR-BB [Peptide 14] : 1.23**
7) Ac-RXRRBRRQFLRBRXR-B [Peptide 5] : 1.24*
8) Ac-RXRRBRRYQFLIRBRXR-B [Peptide 4] : 1.14*
9) Ac-RXRRBRRFQILYRBRXR-B [Peptide 3] : 0.92

###

System: human SMN2-gene
ASSAY TEXT: Full-length SMN2 transcript qPCR in tissues of adult SMA mice after intravenous peptide-PMO conjugate
Format: in vivo
CONDITION DETAILS: adult SMA mice; 2x15 mg/kg IV approx. 48 hours apart; tissue 7 days post final administration; normalised to saline treated controls; Central Nervous System
The label depends only on full-length SMN2 transcripts, mean expression level, Cerebellum: 1.0 if it is at least 1, 0.0 if it is smaller.

1. Ac-RXRRBRRFLRBRXR-B [Peptide 6] : 1.0
2. Ac-RXRRBRRYQFLIRBRXR-B [Peptide 4] : 0.0
3. Ac-RXRRBRFQILYRBRXR-B [Peptide 7] : 0.0
4. Ac-RXRRBRRXR S*FLRXRBRXR-BB [Peptide 14] : 1.0

###

Tested on: human SMN2-gene
ASSAY TEXT: Full-length SMN2 transcript qPCR in tissues of adult SMA mice after intravenous peptide-PMO conjugate
Type: in vivo
CONDITION DETAILS: adult SMA mice; 2x15 mg/kg IV approx. 48 hours apart; tissue 7 days post final administration; normalised to saline treated controls; Off Target
full-length SMN2 transcripts, mean expression level, Liver strictly under 3 means true; at 3 or over means false.

1) Ac-RXRRBRRFLRBRXR-B [Peptide 6] : true
2) Ac-RXRRBRRYQFLIRBRXR-B [Peptide 4] : false
3) Ac-RXRRBRRFQILYRBRXR-B [Peptide 3] : false
4) Ac-RXRRBRRQFLRBRXR-B [Peptide 5] : true
5) Ac-RXRRBRFQILYRBRXR-B [Peptide 7] : false
6) Ac-RXRRBRR FS*RBRXR-B [Peptide 17] : false
7) Ac-RXRRBRRXR S*FLRXRBRXR-BB [Peptide 14] : false
8) Ac-RXRRBRRXRYQFLIRXRBRXR-B [Peptide 1] : true

###

Entries and their measured full-length SMN2 transcripts, mean expression level, Quad follow.
Tested on: human SMN2-gene
ASSAY TEXT: Full-length SMN2 transcript qPCR in tissues of adult SMA mice after intravenous peptide-PMO conjugate
Format: in vivo
CONDITION DETAILS: adult SMA mice; 2x15 mg/kg IV approx. 48 hours apart; tissue 7 days post final administration; normalised to saline treated controls; Skeletal Muscle (quadriceps)
Marks after values point to notes of the source that are not given here.
MEASURED QUANTITY: full-length SMN2 transcripts, mean expression level, Quad

1) Ac-RXRRBRFQILYRBRXR-B [Peptide 7] : 2.80****
2) Ac-RXRRBRRYQFLIRBRXR-B [Peptide 4] : 2.70****
3) Ac-RXRRBRRFLRBRXR-B [Peptide 6] : 2.89***
4) Ac-RXRRBRR FS*RBRXR-B [Peptide 17] : 2.68***
5) Ac-RXRRBRRQFLRBRXR-B [Peptide 5] : 2.46****
6) Ac-RXRRBRRXRQFLRXRBRXR-B [Peptide 2] : 2.52****
7) Ac-RXRRBRRFQILYRBRXR-B [Peptide 3] : 3.35****
8) Ac-RXRRBRRXR S*FLRXRBRXR-BB [Peptide 14] : 2.45***
9) Ac-RXRRBRRXRYQFLIRXRBRXR-B [Peptide 1] : 3.37***

###

System: human SMN2-gene
ASSAY TEXT: Full-length SMN2 transcript qPCR in tissues of adult SMA mice after intravenous peptide-PMO conjugate
Assay type: in vivo
CONDITION DETAILS: adult SMA mice; 2x15 mg/kg IV approx. 48 hours apart; tissue 7 days post final administration; normalised to saline treated controls; spinal cord
Marks after values point to notes of the source that are not given here.
Entries and their measured full-length SMN2 transcripts, mean expression level, Thoracic follow.
MEASURED QUANTITY: full-length SMN2 transcripts, mean expression level, Thoracic

1. Ac-RXRRBRR FS*RBRXR-B [Peptide 17] : 1.39**
2. Ac-RXRRBRRFLRBRXR-B [Peptide 6] : 1.37*
3. Ac-RXRRBRRFQILYRBRXR-B [Peptide 3] : 1
4. Ac-RXRRBRRQFLRBRXR-B [Peptide 5] : 1.23
5. Ac-RXRRBRRXR S*FLRXRBRXR-BB [Peptide 14] : 2.38**
6. Ac-RXRRBRFQILYRBRXR-B [Peptide 7] : 1.33
7. Ac-RXRRBRRXRYQFLIRXRBRXR-B [Peptide 1] : 1.45***
8. Ac-RXRRBRRYQFLIRBRXR-B [Peptide 4] : 1.12
9. Ac-RXRRBRRXRQFLRXRBRXR-B [Peptide 2] : 1.49*

###

Tested on: human SMN2-gene
ASSAY TEXT: Full-length SMN2 transcript qPCR in tissues of adult SMA mice after intravenous peptide-PMO conjugate
Format: in vivo
CONDITION DETAILS: adult SMA mice; 2x15 mg/kg IV approx. 48 hours apart; tissue 7 days post final administration; normalised to saline treated controls; spinal cord
MEASURED QUANTITY: full-length SMN2 transcripts, mean expression level, Lumbar

1. Ac-RXRRBRFQILYRBRXR-B [Peptide 7] : 0.97
2. Ac-RXRRBRRYQFLIRBRXR-B [Peptide 4] : 1
3. Ac-RXRRBRRFQILYRBRXR-B [Peptide 3] : 1.1
4. Ac-RXRRBRR FS*RBRXR-B [Peptide 17] : 1.1
5. Ac-RXRRBRRXR S*FLRXRBRXR-BB [Peptide 14] : 2.23

###

Tested on: human SMN2-gene
ASSAY TEXT: Full-length SMN2 transcript qPCR in tissues of adult SMA mice after intravenous peptide-PMO conjugate
Format: in vivo
CONDITION DETAILS: adult SMA mice; 2x15 mg/kg IV approx. 48 hours apart; tissue 7 days post final administration; normalised to saline treated controls; Central Nervous System
Marks after values point to notes of the source that are not given here.
MEASURED QUANTITY: full-length SMN2 transcripts, mean expression level, Brainstem

1. Ac-RXRRBRRXRQFLRXRBRXR-B [Peptide 2] : 1.36***
2. Ac-RXRRBRRXRYQFLIRXRBRXR-B [Peptide 1] : 1.48***
3. Ac-RXRRBRRXR S*FLRXRBRXR-BB [Peptide 14] : 1.97***
4. Ac-RXRRBRRYQFLIRBRXR-B [Peptide 4] : 0.98
5. Ac-RXRRBRRFLRBRXR-B [Peptide 6] : 1.38**

###

System: human SMN2-gene
ASSAY TEXT: Full-length SMN2 transcript qPCR in tissues of adult SMA mice after intravenous peptide-PMO conjugate
Type: in vivo
CONDITION DETAILS: adult SMA mice; 2x15 mg/kg IV approx. 48 hours apart; tissue 7 days post final administration; normalised to saline treated controls; Central Nervous System
Entries and their measured full-length SMN2 transcripts, mean expression level, Cerebellum follow.
MEASURED QUANTITY: full-length SMN2 transcripts, mean expression level, Cerebellum

1. Ac-RXRRBRRFQILYRBRXR-B [Peptide 3] : 1.025
2. Ac-RXRRBRRQFLRBRXR-B [Peptide 5] : 1
